Test system: UACC-62
ASSAY_TEXT: NCI tumour cell line growth inhibition, 48 h
Activity calls are given as the source filed them. Cut-off read from the data, not from the text of the source: active = GI50 up to about 1.1 µM and inactive = higher.
REPORTED_METRIC: GI50

Below, each entry is followed by its recorded GI50 result.
[[record]]
molecule = "COCCNc1cncc(C(N)=O)c1"
measured_target = "UACC-62"
reported_metric = "GI50"
endpoint_value = "> 100 µM (inactive)"

[[record]]
molecule = "Nc1nc(Cl)cc(NCC2(CO)CC(O)C2)n1 (configuration not stated)"
measured_target = "UACC-62"
reported_metric = "GI50"
endpoint_value = "> 100 µM (inactive)"

[[record]]
molecule = "COc1cc(O)c(C(=O)/C=C/c2ccc(O)cc2)cc1Oc1ccc(C(=O)/C=C/c2ccc(O)cc2)c(O)c1 [RHUSCHALCONE IV]"
measured_target = "UACC-62"
reported_metric = "GI50"
endpoint_value = "2.33 µM (inactive)"

[[record]]
molecule = "O=C1c2ccccc2-c2c1c(-c1cccc(Br)c1)nc1ccc3ccccc3c21"
measured_target = "UACC-62"
reported_metric = "GI50"
endpoint_value = "> 100 µM (inactive)"

[[record]]
molecule = "O=C(Cc1ccccc1)C(c1ccccc1)S(=O)(=O)c1ccccc1 (configuration not stated)"
measured_target = "UACC-62"
reported_metric = "GI50"
endpoint_value = "75.2 µM (inactive)"


# query: GI50 | item COc1ccc(C(C)NNC(=O)c2cc[n+]([BH2-]C#N)cc2)c(OC)c1 (configuration not stated) | system: UACC-62
> 100 µM (inactive)

Also check "O=C(Cc1ccc([N+](=O)[O-])c([N+](=O)[O-])c1CC(=O)C(=O)Nc1cc(Cl)ccc1Cl)C(=O)Nc1cc(Cl)ccc1Cl"
> 100 µM (inactive)
